Overview of recorded furin cleavage Z-score for various sequences
Target: furin, P09958;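 note: purified furin at 1:10 enzyme:substrate in 50 mM HEPES pH 7.5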
Sequence (P09958 whole entry): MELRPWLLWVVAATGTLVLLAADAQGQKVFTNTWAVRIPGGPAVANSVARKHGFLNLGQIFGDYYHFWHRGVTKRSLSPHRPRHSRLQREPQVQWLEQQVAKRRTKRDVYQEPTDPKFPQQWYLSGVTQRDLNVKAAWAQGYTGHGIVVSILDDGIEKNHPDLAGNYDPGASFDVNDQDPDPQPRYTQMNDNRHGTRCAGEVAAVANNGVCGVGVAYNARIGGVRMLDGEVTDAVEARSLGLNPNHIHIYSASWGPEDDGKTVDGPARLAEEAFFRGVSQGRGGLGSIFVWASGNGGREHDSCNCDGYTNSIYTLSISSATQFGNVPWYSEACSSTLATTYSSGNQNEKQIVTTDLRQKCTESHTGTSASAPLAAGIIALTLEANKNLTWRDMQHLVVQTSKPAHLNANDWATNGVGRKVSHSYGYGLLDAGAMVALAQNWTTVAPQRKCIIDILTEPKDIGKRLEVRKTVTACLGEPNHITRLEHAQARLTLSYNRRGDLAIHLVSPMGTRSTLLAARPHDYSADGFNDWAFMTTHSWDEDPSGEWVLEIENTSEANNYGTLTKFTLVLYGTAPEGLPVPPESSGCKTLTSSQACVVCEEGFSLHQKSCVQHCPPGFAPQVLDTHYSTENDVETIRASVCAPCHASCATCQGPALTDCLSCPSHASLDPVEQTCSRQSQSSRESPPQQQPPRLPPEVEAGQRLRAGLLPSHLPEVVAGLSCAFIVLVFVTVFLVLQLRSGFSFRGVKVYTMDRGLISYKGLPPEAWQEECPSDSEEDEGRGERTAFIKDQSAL
Experiment: furin cleavage Z-score vs untreated control; higher = more cleavage, active = 3.5 or more, inactive = 1 or less, 8 variable residues between constant flanks
Conditions: 30 min
The list shows a part of the results. No count for the full screen is at hand.
Lab note: record just the number, no unit beside it.

Observe how each entry below is paired with its result.
[[record]]
sequence_input = "CAMYVGGVEHAGNASASA [HC476]"
outcome_measure = "furin cleavage Z-score"
assay_value = -0.205

[[record]]
sequence_input = "CALNCNDSLNAGNASASA [HC374]"
outcome_measure = "furin cleavage Z-score"
assay_value = -1.02

[[record]]
sequence_input = "CAIRFRHLRSAGNASASA [FS-1536]"
outcome_measure = "furin cleavage Z-score"
assay_value = 3.84

[[record]]
sequence_input = "CASLERHLRSAGNASASA [FS-1413]"
outcome_measure = "furin cleavage Z-score"
assay_value = 3.46

[[record]]
sequence_input = "CAMGECSQHLAGNASASA [HC1696]"
outcome_measure = "furin cleavage Z-score"
assay_value = 1.45


Return furin cleavage Z-score (reported value) for this sequence: CARWKRDSSGAGNASASA [FS-3176]
10.2

Return furin cleavage Z-score (reported value) for this sequence: CAKKKCDELAAGNASASA [HC859]
-1.61

Return furin cleavage Z-score (reported value) for this sequence: CAITSRIIRSAGNASASA [FS-1217]
6.88

Return furin cleavage Z-score (reported value) for this sequence: CAKVTFDRLQAGNASASA [HC1396]
-2.04

Return furin cleavage Z-score (reported value) for this sequence: CARLVRESSGAGNASASA [FS-2999]
1.91

Return furin cleavage Z-score (reported value) for this sequence: CAARMILMTHAGNASASA [HC1581]
-1.15

Return furin cleavage Z-score (reported value) for this sequence: CASIERVKRQAGNASASA [FS-961]
7.3

Return furin cleavage Z-score (reported value) for this sequence: CAKVIDTLTCAGNASASA [HC221]
-0.555

Return furin cleavage Z-score (reported value) for this sequence: CAITNRPPRSAGNASASA [FS-1216]
2.23

Return furin cleavage Z-score (reported value) for this sequence: CARIKRDSQGAGNASASA [FS-2338]
10.5
